Ref: PubChem BioAssay AID540269

Overview of reported IC50 across a group of compounds:
ASSAY_TARGET: glucose-6-phosphate dehydrogenase-6-phosphogluconolactonase (Plasmodium falciparum 3D7)
TEST: PfG6PD enzyme inhibitors, kinetic NADPH readout, dose response, orthogonal assay, biochemical, kinetic NADPH detection (AID 540269)
EXPERIMENTAL_PARAMETERS: purified PfG6PD-6PGL
Calls of active or inactive are those of the source. The rule behind the calls is not given here.

- COMPOUND: "CCN(CC)c1ccc(C(=C2C=CC(=[N+](CC)CC)C=C2)c2ccccc2)cc1"
  IC50: "> 80 µM (inactive)"
- COMPOUND: "COc1ccc(C(=O)Nc2cc(Cl)ccc2C(=O)O)cc1"
  IC50: "17.7 µM"
- COMPOUND: "Cc1ccc(S(=O)(=O)Oc2cccc(/C=N/Nc3ccc(C(=O)O)cc3)c2)cc1"
  IC50: "41.4 µM"
- COMPOUND: "CCOC(=O)Cc1cc(=O)n2[nH]c(C(C)(C)C)cc2n1"
  IC50: "> 80 µM (inactive)"
- COMPOUND: "CCN(CC)CCn1c2ccccc2c(=O)c2c(O)ccc(O)c21"
  IC50: "33.1 µM"
- COMPOUND: "COc1cc(CNc2ccc(N3CCCC3)cc2)cc(Cl)c1OC"
  IC50: "> 80 µM (inactive)"
- COMPOUND: "c1ccc(-c2cn3c(n2)CCc2ccc4cccnc4c2-3)cc1"
  IC50: "> 80 µM (inactive)"
- COMPOUND: "O=C1C=C(NCCc2cc(Br)c(O)c(Br)c2)C(=O)c2ncccc21"
  IC50: "> 80 µM (inactive)"

Per the records, this compound ( `COc1ccc(-n2c(=S)[nH]c3c(sc(=S)n3-c3ccccc3)c2=O)c(OC)c1` ) has IC50 equal to > 80 µM (inactive)

Per the records, this compound ( CCN1CCCC1CNC(=O)c1ccc2c(c1)NC(=O)/C(=C\c1ccc(C)cc1)S2 (stereo not given) ) has IC50 equal to 6.79 µM

Per the records, this compound ( `O=C(CNC(=O)c1cccs1)OCC(=O)c1ccc([N+](=O)[O-])cc1` ) has IC50 equal to > 80 µM (inactive)

Per the records, this compound ( `O=C1C=CC(=O)N1c1ccc(-c2nc3ccccc3o2)cc1` ) has IC50 equal to > 80 µM (inactive)

Per the records, this compound ( `O=C1OC(c2ccc3ccccc3c2O)(c2ccc3ccccc3c2O)c2ccccc21` ) has IC50 equal to > 80 µM (inactive)

Per the records, this compound ( `O=[N+]([O-])c1c(NCCO)cc(Sc2nc3ccccc3s2)c2nonc12` ) has IC50 equal to > 80 µM (inactive)

---

ASSAY_TARGET: glucose-6-phosphate dehydrogenase-6-phosphogluconolactonase (Plasmodium falciparum 3D7)
TEST: PfG6PD enzyme inhibitors, kinetic NADPH readout, dose response, orthogonal assay, biochemical, kinetic NADPH detection (AID 540269)
EXPERIMENTAL_PARAMETERS: purified PfG6PD-6PGL
Active and inactive are the calls of the source. No rule for the calls is given here.
Pick one and only one: label 1 (active), label 0 (inactive)

- COMPOUND: "COc1ccccc1N1C(=O)C=C(Sc2nc(C)cc(C)n2)C1=O"
  LABEL: "label 0"
- COMPOUND: "c1cc(CNc2ccc3c(c2)OCO3)ccn1"
  LABEL: "label 0"
- COMPOUND: "Cn1c(=O)c2[nH]c(-c3ccccc3)c(O)c2n(C)c1=O"
  LABEL: "label 0"
- COMPOUND: "O=C1C(=Cc2cccc(O)c2O)SC(=S)N1CCCN1CCOCC1"
  LABEL: "label 1"
- COMPOUND: "Cc1cccc(C(=O)Nc2nnc(S(=O)(=O)N3CCCCCC3)s2)c1"
  LABEL: "label 1"
- COMPOUND: "COC(=O)CCC(=O)OC1(C)C(=O)C2=CN(C3CC3)C(c3ccc(OC)cc3)=CC2=C(Br)C1=O (stereo unspecified)"
  LABEL: "label 1"
- COMPOUND: "Cc1ccc2nc(SCC(=O)N/N=C/c3ccco3)cc(C)c2c1"
  LABEL: "label 0"
- COMPOUND: "CN1CCN(C(=O)c2sc(=S)n(-c3ccccc3)c2N)CC1"
  LABEL: "label 1"
- COMPOUND: "CCNc1cc2c(cc1O)CCC1C2CCC2(C)C(O)CCC12 (stereo unspecified)"
  LABEL: "label 1"
- COMPOUND: "O=[N+]([O-])c1ccc(N/N=C/c2ccc(O)c(O)c2O)c(S(=O)(=O)N2CCOCC2)c1"
  LABEL: "label 1"

# fetch the recorded call for `Cc1[nH]c2ccccc2c1/C=N/NC(=O)c1cccc(S(=O)(=O)Nc2ccccc2Cl)c1` here
label 1

# fetch the recorded call for `O=c1c2ccccc2sn1-c1ccc(S(=O)(=O)N2CCCCC2)cc1` here
label 0

# fetch the recorded call for `COc1cc(N=c2ssnc2Cl)cc(OC)c1` here
label 0

# fetch the recorded call for `COc1ccc(-n2sc3ccccc3c2=O)cc1` here
label 1
